The reported numbers originate from ChEMBL document CHEMBL1687890.

Biological target: Mu-type opioid receptor (Rattus norvegicus) (UniProt P33535)
Sequence (P33535 whole entry): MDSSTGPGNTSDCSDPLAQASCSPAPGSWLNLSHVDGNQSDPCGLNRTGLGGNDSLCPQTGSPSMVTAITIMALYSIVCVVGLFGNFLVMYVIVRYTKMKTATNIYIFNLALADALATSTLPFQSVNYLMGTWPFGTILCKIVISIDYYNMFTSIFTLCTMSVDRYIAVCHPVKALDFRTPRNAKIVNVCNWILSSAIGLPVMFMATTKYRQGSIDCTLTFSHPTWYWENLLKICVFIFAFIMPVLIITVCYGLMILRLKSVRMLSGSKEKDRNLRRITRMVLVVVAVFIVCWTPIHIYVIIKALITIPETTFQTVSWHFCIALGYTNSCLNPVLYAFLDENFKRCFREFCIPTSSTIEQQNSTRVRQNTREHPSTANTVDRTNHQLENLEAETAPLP
Test: Agonist activity at mu opioid receptor in rat brain membrane by [35S]GTPgammaS binding assay relative to baseline
Format: functional, cell membranes
I'd appreciate it if you could supply Emax values for the items below.
One number for each entry, in %.

>  <COMPOUND>
NC(=O)[C@H](Cc1ccccc1)NC(=O)[C@H](Cc1ccccc1)NC(=O)[C@@H]1CCCN1C(=O)[C@@H](N)Cc1ccc(O)cc1 [ENDOMORPHIN 2]

>  <MEASURED VALUE>
163

$$$$
>  <COMPOUND>
NC(=O)C(Cc1ccc(F)cc1)NC(=O)[C@H](Cc1c[nH]c2ccccc12)NC(=O)[C@H]1CCCC[C@H]1NC(=O)[C@@H](N)Cc1ccc(O)cc1 (stereo not given in full)

>  <MEASURED VALUE>
174

$$$$
>  <COMPOUND>
NC(=O)[C@H](Cc1ccccc1)NC(=O)[C@H](Cc1c[nH]c2ccccc12)NC(=O)[C@@H]1CCCN1C(=O)[C@@H](N)Cc1ccc(O)cc1 [ENDOMORPHIN-1]

>  <MEASURED VALUE>
149

$$$$

Dear colleague, could you please provide Emax for the compounds listed below?
1. Cc1cc(CC(N)C(=O)N[C@@H]2CCCC[C@@H]2C(=O)N[C@@H](Cc2c[nH]c3ccccc23)C(=O)NC(Cc2ccc(F)cc2)C(N)=O)cc(C)c1O (stereo not given in full)
2. Cc1cc(CC(N)C(=O)N[C@@H]2CCCC[C@@H]2C(=O)N[C@@H](Cc2c[nH]c3ccccc23)C(=O)N[C@H](C(N)=O)[C@@H](C)c2ccccc2)cc(C)c1O (stereo not given in full)

Out:
[163, 162]
